Provide the recorded protein stability index for the entries that follow.
test system: Saccharomyces cerevisiae; assay: protein stability index of tFT-peptide fusion (C-terminal peptide) (PSI (0-1 scale)); higher = more stable (slower turnover); details: genetic background: cdc34-1; temperature: 37 C
Give bare numbers.

Dear reader, for each entry below, please note its protein stability index.
1. VLGPRFCFVCHA
2. ISLSSLYVVMYV
3. CSVPLGVFAIVV
4. VFFTSLPPLLRA
5. FYSLYLSLVCFN
6. HSRALLPYLSYH
7. LCLLCWIPCSFR

1: 0.555; 2: 0.413; 3: 0.463; 4: 0.433; 5: 0.345; 6: 0.684; 7: 0.629

Need protein stability index for each of these sequences.
1. RDYIAAKLVVCG
2. ACFLFPSHLLIS
3. SFTPPRVCLCFS
4. IRSLRPFLLPLF
5. CFFFCSLFLSFL
6. SCLSYRTRLLAF

1: 0.41; 2: 0.584; 3: 0.465; 4: 0.645; 5: 0.439; 6: 0.52

List protein stability index for every entry below, keeping the order given.
1. VSVVLKTQRVVC
2. TLFSPPVLATPS
3. DSTLLYRPPSPA

[0.595, 0.624, 0.672]

----------
system: Saccharomyces cerevisiae; assay: protein stability index of tFT-peptide fusion (C-terminal peptide) (PSI (0-1 scale)); higher = more stable (slower turnover); details: genetic background: wild type; temperature: 30 C
Exercise: state measured protein stability index for each of the sequences provided.
Answers are plain numbers.

Worked examples, 3 sequences total:
{"columns": ["residueCodes", "resultValue"],
 "data": [
  ["PLSTHNSLPRVK", 0.691],
  ["PLFSFLPPPLPP", 0.697],
  ["DAFWLRSRRSEG", 0.712]
]}

For each of the sequences below, state protein stability index.
1. KKKVAITPQQTR
2. GVWTPGPIWGRG
3. LPSLLYIFPPLS
4. YIDLLTRVCIRR
5. RKSDGMKSCLMG
6. LLLRLAASSSLS
7. FLLDRSSADHSL
8. KYIGHSENATSK

[0.685, 0.713, 0.698, 0.692, 0.684, 0.703, 0.684, 0.71]

Give protein stability index for each listed item.
1. DIIGMPLLMKKK
2. LDVFPVWSDANA
3. GAMLAGRHGWGL
4. VQNPVTTPQEQF
5. DKLSSRIPCSPS
6. RRGPLDSVLVAI
7. VVSWLGAGYSVR
8. RKGHKSNRSKNE

1: 0.693; 2: 0.714; 3: 0.715; 4: 0.684; 5: 0.679; 6: 0.713; 7: 0.7; 8: 0.705

Give protein stability index for each of the items listed below.
1. EVVRWGCVDLWI
2. AGAGVQAYGRGR

0.717
0.681

----------
tested on: Saccharomyces cerevisiae; assay: protein stability index of tFT-peptide fusion (C-terminal peptide) (PSI (0-1 scale)); higher = more stable (slower turnover); conditions: genetic background: wild type; temperature: 37 C
Rule: yes (1) for protein stability index not less than 0.5, no (0) for anything less.

Solved entries:
{"columns": ["residueCodes", "assignedLabel"],
 "data": [
  ["IGSFYVLSFICQ", "yes (1)"],
  ["PRLWLYCLIISL", "no (0)"],
  ["LFGRVLSGILSV", "yes (1)"],
  ["VSISLCVLCPVF", "no (0)"]
]}

Query sequence follows.
Is the recorded value of protein stability index equal to or greater than 0.5 for this sequence? `GVCRFFCLVFCS`
no (0)

----------
tested on: Saccharomyces cerevisiae; experiment: protein stability index of tFT-peptide fusion (C-terminal peptide) (PSI (0-1 scale)); higher = more stable (slower turnover); details: genetic background: das1 deletion; temperature: 30 C
endpoint: protein stability index
Give bare numbers.

{"columns": ["residueCodes", "protein stability index"],
 "data": [
  ["TAFLNKVYKRSK [ERG20 C-terminal 12 aa]", 0.692],
  ["APPKLNNSSESE [STE23 C-terminal 12 aa]", 0.681],
  ["KTHTEYGYVMVA [YGR137W C-terminal 12 aa]", 0.618],
  ["KRLGKKTVVTSR [DCC1 C-terminal 12 aa]", 0.701],
  ["LLRKLSMKRPFS [APL1 C-terminal 12 aa]", 0.683],
  ["VFLELKKAQRWA [API2 C-terminal 12 aa]", 0.703]
]}

Consider now this further sequence.
Which measured protein stability index value corresponds to LTHQSLLATARK [KIP3 C-terminal 12 aa] ?
0.693

----------
test system: Saccharomyces cerevisiae; test: protein stability index of tFT-peptide fusion (C-terminal peptide) (PSI (0-1 scale)); higher = more stable (slower turnover); settings: genetic background: wild type; temperature: 30 C
endpoint: protein stability index
Give bare numbers.

Please review the following examples before continuing.
{"columns": ["residueCodes", "protein stability index"],
 "data": [
  ["GACDGEGGSRVR", 0.611],
  ["PLSPPPPPRPPL", 0.728],
  ["GEGALTGGAGGQ", 0.647],
  ["TSSPHGQSVTEP", 0.67],
  ["DNSIWPSALCAP", 0.703]
]}

Respectfully, I request protein stability index for each entry included below.
1. RRRAEGRRGVRA
2. NSWGRRAGMRGG
3. IQLEFEDMERGK
4. VCSRWFFVFVVR
5. AAGRRGWGRGRG
6. VSRGESEVKAGG
7. WSCVGLWGRFCC
8. VGSLGVGTFRRD

[0.622, 0.731, 0.704, 0.388, 0.788, 0.673, 0.448, 0.692]

Go through the items and report each one's protein stability index.
1. NVNMGSRGQFNF
2. VGSSLRGWSSRT
3. RDELSYIDICLT
4. RRKEQGNHSTMR
5. CFLSAVFISSSL
6. RSGWWQWGRPGT
7. ALVQWRVGGCGG

1: 0.628; 2: 0.804; 3: 0.691; 4: 0.663; 5: 0.601; 6: 0.752; 7: 0.709

----------
test system: Saccharomyces cerevisiae; assay: protein stability index of tFT-peptide fusion (C-terminal peptide) (PSI (0-1 scale)); higher = more stable (slower turnover); details: genetic background: wild type; temperature: 30 C
endpoint: protein stability index
Numbers only.

Below are worked cases with known answers.
{"columns": ["residueCodes", "protein stability index"],
 "data": [
  ["STFASLRPLFFS", 0.613],
  ["IAVHLSVSSRSW", 0.616],
  ["SPLFPPIPSSLS", 0.728]
]}

// each listed sequence needs a value for protein stability index
1. LSWSLSSFACEM
2. KFASNNMFTRYV

1. 0.65
2. 0.745

----------
system: Saccharomyces cerevisiae; assay: protein stability index of tFT-peptide fusion in wild type (PSI (0-1 scale)); higher = more stable (slower turnover); conditions: genetic background: wild type
For each entry below, report its protein stability index value.
Numbers only.

{"columns": ["residueCodes", "assaySystem", "protein stability index"],
 "data": [
  ["RRGAVGGWRLVG", "Saccharomyces cerevisiae", 0.16],
  ["RLIWPLPVQFLN", "Saccharomyces cerevisiae", 0.0399],
  ["CTSCGYEFRTNN", "Saccharomyces cerevisiae", 0.64],
  ["PAKRNHLIKLLN", "Saccharomyces cerevisiae", 0.131],
  ["ALYMCSVGCWFR", "Saccharomyces cerevisiae", 0.351]
]}

Could you report protein stability index for every entry in the following list?
1. CVSCGYKFRTNN
2. PSLAASFWRGVG
3. CTSCGYKHRTNN

1: 0.243; 2: 0.232; 3: 0.582

# return protein stability index for each item in the list
1. GLYMCSCGCWFR
2. RLTRLDAIYFRI
3. KKHKKGQKQKAN
4. SSLRVLLPLYFR
5. PSLAGSFWRVVG
6. LKSLRQKMNHQN
7. AITLPMCPYLLR
8. FLIQPLPVQFLN

1: 0.46; 2: 0.379; 3: 0.308; 4: 0.252; 5: 0.152; 6: 0.202; 7: 0.545; 8: 0.0527

Please report protein stability index for every entry that follows.
1. RSLRVSLPLYFR
2. QSLAASFWRVVG
3. ARERVGLWRGAS
4. GAYMCSVGCWFR
5. KKHKKGQLQKIN
6. KLHKKGQKQKIN
7. GLYMCSVGCWFY

[0.15, 0.13, 0.609, 0.427, 0.121, 0.0703, 0.398]

----------
test system: Saccharomyces cerevisiae; test: protein stability index of tFT-peptide fusion (C-terminal peptide) (PSI (0-1 scale)); higher = more stable (slower turnover); conditions: genetic background: wild type; temperature: 30 C
Cut-off 0.7 on protein stability index, inclusive. At or above means T; below means F.

Solved entries (count: 8):
{"columns": ["residueCodes", "assignedLabel"],
 "data": [
  ["GWLRGVCFCSWG", "T"],
  ["SDVFGGVLSFGF", "F"],
  ["LIIMPTFDISAP", "T"],
  ["GCGLGEEGSSGV", "F"],
  ["VPRLPPSPPPLP", "T"],
  ["NGSSFSRTVRFM", "F"],
  ["SGFFGFLLGAYG", "F"],
  ["VAFGVASGWCWF", "F"]
]}

Item `FSGFPLTLSPPL` with protein stability index of 0.7 or above?
T

// next record `QNHKSYQTQDHN`
F

Also check `KPPNRQCLYDAL`
T

Next entry: `LLPPSPFTPPPF`
T
